Recorded values, source ChEMBL document CHEMBL1201862.

- Tested on: A498
- Test details: NCI tumour cell line growth inhibition, 48 h
Calls of active or inactive are those of the source. No stated cut-off is given here; in the data, active = GI50 up to about 1.1 µM and inactive = higher.
Measurement label: GI50

Consider the reported GI50 for these molecules:
INSERT INTO measurements (molecule, result) VALUES
  ('N#CCC(=O)Nc1cccc(C(F)(F)F)c1', '> 100 µM (inactive)'),
  ('COc1ccccc1-n1c(C)nc2ccccc2c1=O', '> 100 µM (inactive)'),
  ('CCCCCCCCCCCCCC(=O)OCC(C[As](=O)(O)O)OC(=O)CCCCCCCCCCCCC (stereo not given)', '> 100 µM (inactive)'),
  ('COc1cc2ncnc(NS(=O)(=O)c3cc4ccccc4s3)c2cc1OC', '56.4 µM (inactive)');

Qu. Bench note: what GI50 did O=C1C=C[C@@H](COC2OC(CO)C(O)C(O)C2O)O1 (stereo not given in full) show?
Ans. 16.1 µM (inactive)

====

- System: EKVX
- Test details: NCI tumour cell line growth inhibition, 48 h
Active and inactive are the calls of the source. Cut-off read from the data, not from the text of the source: active = GI50 up to about 1.1 µM and inactive = higher. Residues, ends and D or L forms follow the SMILES beside them. *: point of attachment. Cbz = O=C(OCc1ccccc1)*
The reply should name one outcome from active, inactive

// below: answered compounds
INSERT INTO measurements (compound, tested_on, assigned_class) VALUES
  ('CCOC(=O)CCC(NC(=O)OCc1ccccc1)C(=O)NC(CCC(=O)OCC)C(=O)OCC (centres undefined) (Cbz-Glu(OEt)-Glu(OEt)-OEt; configuration not given here)', 'EKVX', 'inactive'),
  ('O=c1[nH]nc(-c2ccccc2)n1Nc1ccccc1', 'EKVX', 'inactive'),
  ('CN1CC[C@@H](c2c(O)cc(O)c3c(=O)cc(-c4ccccc4Cl)oc23)[C@@H](O)C1', 'EKVX', 'active');

Qu. Per the assay record, what outcome was assigned to COC(=O)c1cncc2c1CC1C3(C(=O)OC)C=NC(C4C(CO)=CCC43)C21C (centres undefined) ?
Ans. inactive

====

- System: U-251
- Test details: NCI tumour cell line growth inhibition, 48 h
Activity calls are given as the source filed them. No stated cut-off is given here; in the data, active = GI50 up to about 1.1 µM and inactive = higher.
The reply should name one outcome from y for active, n for inactive

// below: answered molecules
INSERT INTO measurements (molecule, assigned_class) VALUES
  ('CC(C)(c1ccc(Oc2ccc(C#N)c(C#N)c2)cc1)c1ccc(Oc2ccc(C#N)c(C#N)c2)cc1', 'n'),
  ('N#CC1(C#N)NC(c2ccsc2)C(C#N)(C#N)NC1c1ccsc1 (centres undefined)', 'n');

Qu. Per the assay record, what outcome was assigned to `CO/C(N)=C(C#N)/N=C/c1ccccc1` ?
Ans. n

Qu. Per the assay record, what outcome was assigned to `Cc1n[nH]c(=O)n1/N=C/c1ccco1` ?
Ans. n

Qu. Per the assay record, what outcome was assigned to `CC(=O)Nc1cc2c(cc1O)CC[C@@H]1[C@@H]2CC[C@]2(C)[C@@H](O)CC[C@@H]12` ?
Ans. n

Qu. Per the assay record, what outcome was assigned to `CN(C)CCCCN1c2ccccc2Sc2cc(N=[N+]=[N-])ccc21` ?
Ans. n

Qu. Per the assay record, what outcome was assigned to `CCNC1=C(NC(=O)c2ccccc2)C(=O)c2ccccc2C1=O` ?
Ans. n

Qu. Per the assay record, what outcome was assigned to CC(=O)NC1C(OCc2ccccc2)OC(CO)C(O)C1OCC(=O)NC(C)C(=O)NC(CCC(=O)OCCNC(=O)c1cccc2cc3ccccc3nc12)C(N)=O (centres undefined) ?
Ans. n

====

Assignment: determine reported GI50 for the given molecules.
- Tested on: PC-3
- Test details: NCI tumour cell line growth inhibition, 48 h
The source made the active and inactive calls. Cut-off read from the data, not from the text of the source: active = GI50 up to about 1.1 µM and inactive = higher.

INSERT INTO assay_data (molecule, result) VALUES
  ('O=c1[nH]c2ccccc2c2oc(-c3ccccc3)nc12', '> 100 µM (inactive)'),
  ('NC(=O)c1cc(N(CCO)CCO)c([N+](=O)[O-])cc1[N+](=O)[O-]', '> 100 µM (inactive)'),
  ('Cc1cc(N2CCN(C)CC2)n2nc(-c3ccc(Cl)cc3)nc2n1', '> 100 µM (inactive)'),
  ('[N-]=[N+]=C(C(=O)C(=[N+]=[N-])C(=O)c1ccccc1)C(=O)c1ccccc1', '> 100 µM (inactive)');

Batch request: GI50 per item, same order as input.
1. CCOC(=O)c1ccc(Nc2nc3ccccc3nc2-c2cccs2)cc1
2. FC(F)(F)C1(c2ccccc2)SCc2nc3ccccc3n21 (stereo not given)

Ans.
["24.8 µM (inactive)", "83.6 µM (inactive)"]

Batch request: GI50 per item, same order as input.
1. CN(C)CCCNc1ccc2nnn3c4ccc(OC(=O)c5ccccc5)cc4c(=O)c1c23
2. c1coc(C2=Nc3cccc4cccc(c34)N2)c1
3. CCCn1c(CN(Cc2nc3ccccc3n2CCC)Cc2nc3ccccc3n2CCC)nc2ccccc21
4. CC1=C2C(=O)c3ccccc3C(=O)[C@H]2[C@H]2CCO[C@H]2O1

Ans.
["8.34 µM (inactive)", "24.2 µM (inactive)", "3.31 µM (inactive)", "30.3 µM (inactive)"]

====

- Tested on: M14
- Test details: NCI tumour cell line growth inhibition, 48 h
Activity calls are given as the source filed them. No stated cut-off is given here; in the data, active = GI50 up to about 1.1 µM and inactive = higher.
Assignment: determine reported GI50 for the given compounds.

Consider the reported GI50 for these compounds:
INSERT INTO assay_data (compound, result) VALUES
  ('C[N+](C)(C)CC1CCCC/C1=N\O (stereo not given)', '> 100 µM (inactive)'),
  ('CC(=O)NC1C(OCc2ccccc2)OC(CO)C(O)C1OCC(=O)NC(C)C(=O)NC(CCC(=O)OCCNC(=O)c1cccc2cc3ccccc3nc12)C(N)=O (stereo not given)', '20.6 µM (inactive)'),
  ('O=C(O)/C(=C/C(=O)c1ccc(Cl)cc1)NNc1ccc([N+](=O)[O-])cc1[N+](=O)[O-]', '42.1 µM (inactive)');

Batch request: GI50 per item, same order as input.
1. COc1cc2c(cc1OC)C(Cl)C(c1ccc(F)cc1)=C2Cl (stereo not given)
2. COc1cc(/C=C2\C(=O)N(C(=O)Cc3ccccc3)N=C2C)ccc1O
3. COc1ccc2c(c1)nc1n2C(c2c(Cl)cccc2Cl)SC1 (stereo not given)
4. NC(=O)CCC(NC(=O)C(F)(F)F)C(=O)O (stereo not given)
5. O=C1C2=C(c3ccccc31)C(c1ccc([N+](=O)[O-])cc1)NC(S)=N2 (stereo not given)
6. O=C1C=C(Nc2cc(Cl)ccc2Cl)c2ccccc2C1=O
7. C/C=C\C(C)=C/C(C)C(=O)CC(O)CC1CC(=O)NC(=O)C1 (stereo not given)

Ans.
["15.4 µM (inactive)", "> 100 µM (inactive)", "12.4 µM (inactive)", "> 100 µM (inactive)", "91.2 µM (inactive)", "19.9 µM (inactive)", "13.6 µM (inactive)"]

====

Assignment: determine reported GI50 for the given molecules.
- Tested on: HT-29
- Test details: NCI tumour cell line growth inhibition, 48 h
Activity calls are given as the source filed them. Rule as the data show it: active = GI50 up to about 1.1 µM and inactive = higher.

Consider the reported GI50 for these molecules:
INSERT INTO assay_data (molecule, result) VALUES
  ('O=[N+]([O-])c1cc(-c2nnc(S)[nH]2)ccc1O', '> 100 µM (inactive)'),
  ('CC1(C)C2CC(O)C1CCC2=O (centres undefined)', '> 100 µM (inactive)'),
  ('O=C1/C(=C/c2ccc(Cl)cc2)COc2ccc(Br)cc21', '> 100 µM (inactive)');

Qu. Bench note: what GI50 did COC12C=CC(CC1)c1c(O)ccc(O)c12 (centres undefined) show?
Ans. 64.9 µM (inactive)

====

- Tested on: OVCAR-5
- Test details: NCI tumour cell line growth inhibition, 48 h
The source made the active and inactive calls. Cut-off read from the data, not from the text of the source: active = GI50 up to about 1.1 µM and inactive = higher.
The reply should name one outcome from active, inactive

// below: answered compounds
INSERT INTO results (compound, tested_on, assigned_class) VALUES
  ('O=C(/C=C/c1ccc2c(c1)OCO2)NCc1ccco1', 'OVCAR-5', 'inactive'),
  ('O=C1CN(c2ccc(Cl)cc2)C(=O)CN1NCNN1CC(=O)N(c2ccc(Cl)cc2)CC1=O', 'OVCAR-5', 'inactive'),
  ('CN(C)CC(/C(Cc1ccccc1)=N\NC(=S)NN)c1ccccc1 (stereo not drawn)', 'OVCAR-5', 'inactive'),
  ('CC[n+]1[b-](C(C)(C)C)n(/N=C(\C)C(C)(C)C)[b-](C(C)(C)C)[n+]1CC', 'OVCAR-5', 'inactive'),
  ('O=c1[nH]nc(-c2ccccc2)n1-c1cccc([N+](=O)[O-])c1', 'OVCAR-5', 'inactive');

Qu. Per the assay record, what outcome was assigned to `COc1cc2oc(=O)cc(C)c2cc1O` ?
Ans. inactive

Qu. Per the assay record, what outcome was assigned to `O=[N+]([O-])c1ccc(C2=Nn3c(nnc3-c3ccc(Cl)cc3)SC2)o1` ?
Ans. inactive

Qu. Per the assay record, what outcome was assigned to `Nc1ccc(O)c2c1C(=O)c1c(N)ccc(O)c1C2=O` ?
Ans. inactive

Qu. Per the assay record, what outcome was assigned to COc1ccc2c(c1)nc1n2C(c2c(Cl)cccc2Cl)SC1 (stereo not drawn) ?
Ans. inactive

Qu. Per the assay record, what outcome was assigned to `CN1CC[C@@H](c2c(O)cc(O)c3c(=O)cc(-c4ccccc4Cl)oc23)[C@@H](O)C1` ?
Ans. active
